- Tested on: A549 NSCLC
- run-description: NCI tumour cell line growth inhibition, 48 h
Measured TGI, listed per entry for reference.

compound	TGI
C/C=C1/CN2CCC34c5ccccc5N(C)C23C2CC1C4(C(=O)OC)C(O)O2 (configuration not stated)	> 100 µM
O=c1c2cc(-c3ccccc3)cnc2sn1-c1ccc(Oc2ccccc2)cc1	53.2 µM
O=C1c2cc([N+](=O)[O-])cc3cc([N+](=O)[O-])cc(c23)C(=O)N1CCCNCCNCCCN1C(=O)c2cc([N+](=O)[O-])cc3cc([N+](=O)[O-])cc(c23)C1=O	3.6 µM
Cc1c(C(=O)/C=C/c2c(Cl)cccc2Cl)c(=O)n(-c2ccccc2)n1C	74.9 µM
Cc1ccc(NC2=C(Cl)C(=O)N(Cc3ccccc3)C2=O)cc1Cl	18.8 µM
CCOC(=O)N1CCN(c2nc(C)n(-c3ccccc3)c(=S)c2C#N)CC1	> 100 µM
COC(=O)CCc1ccc2c(c1)CC1(Cc3ccccc3C1)C2	> 100 µM
COc1ccc2oc(=O)c(-c3nc4ccccc4o3)cc2c1	> 100 µM
C(=NCCCN1CCN(CCCN=Cc2cccc3ccccc23)CC1)c1cccc2ccccc12	> 100 µM
C/C(=C\CCc1ccsc1)CC/C=C(\C)CCCN1CCC(CO)CC1	7.56 µM

Tested on A549 NSCLC: CCC1CC(C)=CCN1S(=O)(=O)c1ccc(C)cc1 (configuration not stated) . Observed TGI: > 100 µM

Tested on A549 NSCLC: CC(C)[Si](OC1=C(C(=O)N(C)c2ccccc2Cl)CCCCC1)(C(C)C)C(C)C . Observed TGI: > 100 µM

Tested on A549 NSCLC: Cc1ccc([N+](=O)[O-])cc1S(=O)(=O)Nc1ccc(C2=NN(C(=O)c3ccccc3)C(c3cccs3)C2)cc1 (configuration not stated) . Observed TGI: > 100 µM

Tested on A549 NSCLC: NC(=O)CCC(CCC(N)=O)(CCC(N)=O)[N+](=O)[O-] . Observed TGI: > 100 µM
